Reported values of MRT last for individual entries
Assay: Comparative PK of Int 1-4 versus gemcitabine in rat plasma (study i)
Assay type: in vivo, Sprague-Dawley rats
Settings: plasma, Sprague-Dawley rat, after iv Int 1-4 10.0 mg/kg; read-out: MRT0-last
Source text: PK measurements: compare PK parameters C0, CL, Vdss, Cmax, tmax, t1/2, AUC(0-t), AUC(0-inf), MRT(0-t), MRT(0-inf) for Int 1-4 and gemcitabine.
Answer in h, number only, no unit symbol.

- molecule: "COc1cc(OC)c2oc(COC(=O)Nc3ccn([C@@H]4O[C@H](CO)[C@@H](O)C4(F)F)c(=O)n3)cc2c1 [Int 1-4]"
  MRT last [h]: 0.171

Okay, now this molecule:
Exercise: Need MRT last, item Nc1ccn([C@@H]2O[C@H](CO)[C@@H](O)C2(F)F)c(=O)n1 [Gemcitabine, gemcitabine]
Key: 3.38
